The reported measurements were obtained from the kinase profiling compilation of Christmann-Franck et al. (2016).

Target: CSNK2A1 (human)
Assay: KINOMEscan competition binding
Details: compound 10.0 µM
Threshold 30%: kinase still bound, per cent of control strictly smaller gives 1, otherwise -1.

compound	measured.on	group.label
O=C1Nc2ccc(I)cc2/C1=C/c1cc(Br)c(O)c(Br)c1	CSNK2A1 (human)	1
C=CC(=O)Nc1cccc(Nc2nc(N[C@H]3CC[C@H](N(C)C)CC3)nc3c2ncn3C(C)C)c1	CSNK2A1 (human)	-1
O=C(O)c1ccc(Nc2ncc3c(n2)-c2ccc(Cl)cc2C(c2c(F)cccc2F)=NC3)cc1	CSNK2A1 (human)	1
COc1cc(C(=O)NC2CCN(C)CC2)ccc1Nc1ncc2c(n1)N(C1CCCC1)CCC(=O)N2C(C)C	CSNK2A1 (human)	-1
CCC(=O)N1CCN(c2ccc(-n3c(=O)ccc4cnc5ccc(-c6cnc7ccccc7c6)cc5c43)cc2C(F)(F)F)CC1	CSNK2A1 (human)	-1
Cn1c(=O)n(-c2ccc(C(C)(C)C#N)cc2)c2c3cc(-c4cnc5ccccc5c4)ccc3ncc21	CSNK2A1 (human)	-1
Cc1ccc2nc(NCCN)c3ncc(C)n3c2c1	CSNK2A1 (human)	-1
Nc1ccc(-c2ccc3ncc4ccc(=O)n(-c5cccc(C(F)(F)F)c5)c4c3c2)cn1	CSNK2A1 (human)	-1
COc1cc(C(=O)NC2CCN(C)CC2)ccc1Nc1ncc2c(n1)N(C1CCCC1)C(C)CC(=O)N2C (centres undefined)	CSNK2A1 (human)	-1

---

Target: CDK7 (human)
Assay: KINOMEscan competition binding
Conditions: compound 10.0 µM

molecule	kinase still bound, per cent of control (%)
O=C(NOC[C@H](O)CO)c1ccc(F)c(F)c1Nc1ccc(I)cc1F	83
O=C(O)c1ccc(Nc2ncc3c(n2)-c2ccc(Cl)cc2C(c2c(F)cccc2F)=NC3)cc1	77
Cc1ccc(NC(=O)c2cccc(C(C)(C)C#N)c2)cc1Nc1ccc2ncn(C)c(=O)c2c1	100
COc1cc(C(=O)NC2CCN(C)CC2)ccc1Nc1ncc2c(n1)N(C1CCCC1)C(C)CC(=O)N2C (stereo not given)	100
Cc1ccc(C(=O)Nc2cccc(C(F)(F)F)c2)cc1Nc1cncc(C(N)=O)c1	100
C[C@@H](Oc1cc(-n2cnc3ccc(CN4CCN(C)CC4)cc32)sc1C(N)=O)c1ccccc1C(F)(F)F	33
CC[C@@H]1C(=O)N(C)c2cnc(Nc3ccc(C(=O)NC4CCN(C)CC4)cc3OC)nc2N1C1CCCC1	100
C=CC(=O)Nc1cc(NC(=O)c2ccc(C)c(NC(=O)c3ccno3)c2)cc(C(F)(F)F)c1	91
CCOc1cc2ncc(C#N)c(Nc3ccc(OCc4ccccn4)c(Cl)c3)c2cc1NC(=O)/C=C/CN(C)C	68
Cc1cc([C@@H](C)Nc2ccccc2C(=O)O)c2nc(N3CCOCC3)cc(=O)n2c1	97

---

In this section we review reported kinase still bound, per cent of control values for a set of molecules.
Target: UniProtKB P49674
Sequence (P49674 whole entry, looked up): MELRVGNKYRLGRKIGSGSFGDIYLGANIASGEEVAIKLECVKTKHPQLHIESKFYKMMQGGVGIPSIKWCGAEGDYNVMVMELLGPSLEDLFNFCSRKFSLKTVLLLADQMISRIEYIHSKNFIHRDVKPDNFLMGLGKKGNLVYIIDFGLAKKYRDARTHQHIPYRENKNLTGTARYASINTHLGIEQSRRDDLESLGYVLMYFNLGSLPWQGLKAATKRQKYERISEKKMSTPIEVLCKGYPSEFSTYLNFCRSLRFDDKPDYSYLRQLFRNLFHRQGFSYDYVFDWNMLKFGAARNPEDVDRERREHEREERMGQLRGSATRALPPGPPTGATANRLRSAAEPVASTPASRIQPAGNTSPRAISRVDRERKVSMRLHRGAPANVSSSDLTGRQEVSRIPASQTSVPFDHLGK
Assay: KINOMEscan competition binding
Details: compound 10.0 µM
value.type: kinase still bound, per cent of control (%)

molecule	measured.on	value.type	observed
CCC(=O)N1CCN(c2ccc(-n3c(=O)ccc4cnc5ccc(-c6cnc7ccccc7c6)cc5c43)cc2C(F)(F)F)CC1	UniProtKB P49674	kinase still bound, per cent of control	59
Cc1cc([C@@H](C)Nc2ccccc2C(=O)O)c2nc(N3CCOCC3)cc(=O)n2c1	UniProtKB P49674	kinase still bound, per cent of control	98
CCN1CCN(Cc2ccc(Nc3ncc4c(n3)N(C)c3ccccc3C(=O)N4C)cc2C(F)(F)F)CC1	UniProtKB P49674	kinase still bound, per cent of control	45
O=C(NOC[C@H](O)CO)c1ccc(F)c(F)c1Nc1ccc(I)cc1F	UniProtKB P49674	kinase still bound, per cent of control	100
C[C@@H](Oc1cc(-n2cnc3ccc(CN4CCN(C)CC4)cc32)sc1C(N)=O)c1ccccc1C(F)(F)F	UniProtKB P49674	kinase still bound, per cent of control	100
O=C(NC1CC1)c1cccc(-c2ccc3c(NC(=O)C4CC4)n[nH]c3c2)c1	UniProtKB P49674	kinase still bound, per cent of control	80
COc1cc(C(=O)NC2CCN(C)CC2)ccc1Nc1ncc2c(n1)N(C1CCCC1)C(C)CC(=O)N2C (centres undefined)	UniProtKB P49674	kinase still bound, per cent of control	100
OCCCNc1cc(-c2ccnc(Nc3cccc(Cl)c3)n2)ccn1	UniProtKB P49674	kinase still bound, per cent of control	100
O=C1Nc2ccc(I)cc2/C1=C/c1cc(Br)c(O)c(Br)c1	UniProtKB P49674	kinase still bound, per cent of control	84
CCOc1cc2ncc(C#N)c(Nc3ccc(OCc4ccccn4)c(Cl)c3)c2cc1NC(=O)/C=C/CN(C)C	UniProtKB P49674	kinase still bound, per cent of control	26
Cn1c(=O)n(-c2ccc(C(C)(C)C#N)cc2)c2c3cc(-c4cnc5ccccc5c4)ccc3ncc21	UniProtKB P49674	kinase still bound, per cent of control	100
Cc1ccc2nc(NCCN)c3ncc(C)n3c2c1	UniProtKB P49674	kinase still bound, per cent of control	58
Cc1ccc(C(=O)Nc2cccc(C(F)(F)F)c2)cc1Nc1cncc(C(N)=O)c1	UniProtKB P49674	kinase still bound, per cent of control	100
N#Cc1c(NC(=O)c2cccc3ccccc23)sc2c1CCCC2	UniProtKB P49674	kinase still bound, per cent of control	70
C=CC(=O)Nc1cccc(Nc2nc(N[C@H]3CC[C@H](N(C)C)CC3)nc3c2ncn3C(C)C)c1	UniProtKB P49674	kinase still bound, per cent of control	0.1
Cc1ccc(NC(=O)c2cccc(C(C)(C)C#N)c2)cc1Nc1ccc2ncn(C)c(=O)c2c1	UniProtKB P49674	kinase still bound, per cent of control	100
C=CC(=O)Nc1cc(NC(=O)c2ccc(C)c(NC(=O)c3ccno3)c2)cc(C(F)(F)F)c1	UniProtKB P49674	kinase still bound, per cent of control	100
CC[C@@H]1C(=O)N(C)c2cnc(Nc3ccc(C(=O)NC4CCN(C)CC4)cc3OC)nc2N1C1CCCC1	UniProtKB P49674	kinase still bound, per cent of control	100
C=CC(=O)Nc1cccc(Oc2nc(Nc3ccc(N4CCN(C)CC4)cc3OC)ncc2Cl)c1	UniProtKB P49674	kinase still bound, per cent of control	100
